Where do the numbers come from? From patent US12565489B2.

chromatographic logP: recorded values
- Test description: Measurement of Log P values by HPLC on reversed phase columns (EEC directive 79/831 Annex V.A8)
- Assay type: physicochemical
- Condition info: LogP
Response field accepts a number only; no unit should be typed.

Examples from the recorded data:
INSERT INTO assay_data (compound, experimental_result) VALUES
  ('C#Cc1cccc(Oc2cnc(C)nc2C(=O)N[C@@H](CON)Cc2ccc(C)cc2C)c1 (racemic) [Compound 4-02]', 2.53),
  ('C#Cc1cccc(Oc2cnc(C)nc2C(=O)O)c1 [Compound 1-05]', 1.77);

-- ask Quickly give me recorded chromatographic logP for C#Cc1ccc(CC2CON=C(c3nc(C)ncc3Oc3cccc(C(F)(F)F)c3)N2)c(C)c1 (racemic) [Compound I-026]
-- reply 3.99

-- ask Quickly give me recorded chromatographic logP for Cc1ncc(Oc2cccc(C(F)(F)F)c2)c(C2=NOC[C@@H](Cc3csc(C(F)(F)F)c3)N2)n1 (racemic) [Compound I-015]
-- reply 4.17

-- ask Quickly give me recorded chromatographic logP for CSc1ncc(Oc2cccc(C(F)(F)F)c2)c(C2=NOC[C@@H](Cc3ccc(C)cc3Cl)N2)n1 (racemic) [Compound I-020]
-- reply 5.14

-- ask Quickly give me recorded chromatographic logP for Cc1ncc(Oc2cccc(Cl)c2)c(C#N)n1 [Compound 16-01]
-- reply 3.07

-- ask Quickly give me recorded chromatographic logP for Cc1cccc(Oc2cnc(C)nc2C2=NOC[C@@H](Cc3ccc(C)cc3C)N2)c1 (racemic) [Compound I-004]
-- reply 3.95
